Test: folding enthalpy; higher = less favourable; fluorescence melt of hairpins on a sequencing array, two-state fit
Conditions: sodium 0.088 M
observable: folding enthalpy (kcal/mol)
Hi! Could you send only the number? It should be in kcal/mol, unit omitted.

The following sequences have reported results that may help.
GGTCTGGGAAACTAGACC (((((.(....).))))); -41.5
GCCGTTGGAAACAGCGGC ((((.((....)).)))); -39.8
CGATACGGAAACGTTTCG (((.(((....))).))); -34.6
GCCTTCGAAAGAAAGGGC ((((((....)))..))); -29.4
GCGTAGGAAACTACGC ((((((....)))))); -31.2
GATCACTACCGTGATC ((((((....)))))); -41.2
GAGAGACCGAAAGGTCTC (((..(((....)))))); -9.65
GCAAACGAAAGTTTCTGC ((((((....)))..))); -14.9
GCGTAGTAACGC ((((....)))); -22
GGGAGCGGAAACACTCCC (((((.(....).))))); -37.7

Sure, the documented folding enthalpy for GATCGTCCATACGATC ((((((....)))))) is -41.8

Sure, the documented folding enthalpy for CGCGCGGAAACGCCGCG ((((((....))).))) is -20

----------
Test: folding enthalpy; higher = less favourable; fluorescence melt of hairpins on a sequencing array, two-state fit
Settings: sodium 0.088 M
Classify by measured folding enthalpy: T if it is equal to or exceeds -20 kcal/mol, F if it is smaller.

Please review the following examples before continuing.
GCATTGGGAAACTGATGC ((((..(....)..)))); F
GTCCGAGGAAACTTGGAC ((((.((....)).)))); F
GTCAAACGAAAGTTAGAC (((.(((....))).))); F
GATCGAGCATTCGATC ((((((....)))))); F
GGTTTTCGAAAGAAACC (((.(((....)))))); F

Confirm if folding enthalpy reported for the sequence AGCCTGAAAAGGCT (((((....))))) is -20 kcal/mol or above.
T

Confirm if folding enthalpy reported for the sequence GATCATTCAGATGATC ((((((....)))))) is -20 kcal/mol or above.
F

Confirm if folding enthalpy reported for the sequence GATCGGTGAGCCGATC ((((((....)))))) is -20 kcal/mol or above.
F

Confirm if folding enthalpy reported for the sequence GGATTGGAAACAATCC ((((((....)))))) is -20 kcal/mol or above.
F

Confirm if folding enthalpy reported for the sequence GCTAGGACGAAAGTCAGC (((..(((....)))))) is -20 kcal/mol or above.
T

Confirm if folding enthalpy reported for the sequence GTGATCGAAAGATCACAC ((((((....)))..))) is -20 kcal/mol or above.
T

Confirm if folding enthalpy reported for the sequence CTCGAGAAATCGAG (((((....))))) is -20 kcal/mol or above.
F

----------
Test: folding enthalpy; higher = less favourable; fluorescence melt of hairpins on a sequencing array, two-state fit
Conditions: sodium 0.088 M
Listed next: entries and their corresponding folding enthalpy.
Hi! Could you send only the number? It should be in kcal/mol, unit omitted.

The following sequences have reported results that may help.
GATCGTACAACGATC ((((((...)))))); -37.4
GGTTTAGGAAACTAGACC (((.(((....))).))); -30.2

Sure, the documented folding enthalpy for GGCACCGAAAGGTTAGCC ((((((....)))..))) is -28.9

Sure, the documented folding enthalpy for GATCTCTGGAGAGATC ((((((....)))))) is -34.4

Sure, the documented folding enthalpy for GTTTAGGGAAACTTGAAC (((.(.(....).).))) is -13

Sure, the documented folding enthalpy for GTGCTGCGAAAGCACAC (((.(((....)))))) is -19.4

Each recorded value in this set is attributed to the array DNA melting data of Ke et al. (doi:10.1101/2024.01.08.574731).
